Tested on: MDA-MB-435
Experiment: NCI tumour cell line growth inhibition, 48 h
The source made the active and inactive calls. Rule as the data show it: active = GI50 up to about 1.1 µM and inactive = higher.
ASSAY METRIC: GI50

[ask] Return GI50 for the following compound: O=C1CSC(/C(=C\c2ccc(Cl)cc2)c2nc3ccccc3[nH]2)=N1
[reply] 17.9 µM (inactive)

[ask] Return GI50 for the following compound: CCCCCCCCCCCCCCCCCCNc1ccn(C2OC(COP(=O)(O)OCC(COP(=O)(O)OCC3OC(n4cc(C)c(=O)[nH]c4=O)CC3N=[N+]=[N-])OCCCCCCCCCCCCCCCCCC)C(O)C2O)c(=O)n1 (centres undefined)
[reply] 87.1 µM (inactive)

[ask] Return GI50 for the following compound: COC(=O)/C=C/COCC1C2CCC(=O)C21 (centres undefined)
[reply] > 100 µM (inactive)

[ask] Return GI50 for the following compound: C/C(=C\CNc1ncnc2c1ncn2CCC(=O)OC(C)(C)C)CO
[reply] > 100 µM (inactive)

[ask] Return GI50 for the following compound: CC1c2ccccc2Cn2cc3c(c21)C(=O)c1cccc(OP(=O)(O)OCc2ccccc2)c1C3=O (centres undefined)
[reply] > 100 µM (inactive)

[ask] Return GI50 for the following compound: CC(C)N1CCCOC(c2ccc([N+](=O)[O-])cc2)O1 (centres undefined)
[reply] > 100 µM (inactive)

[ask] Return GI50 for the following compound: O=C(Cc1nc2ccc([N+](=O)[O-])cc2nc1O)C(=O)Nc1cc(Cl)c(Cl)cc1Cl
[reply] > 100 µM (inactive)

[ask] Return GI50 for the following compound: CC1CC/C(=C\c2ccc(F)cc2)C2=C1C(c1ccc(F)cc1)n1c(s/c(=C/c3cccc(Br)c3)c1=O)=N2 (centres undefined)
[reply] > 100 µM (inactive)

[ask] Return GI50 for the following compound: c1ccc2c(c1)Sc1ccccc1N2CCCN1c2ccccc2Sc2ccccc21
[reply] 58.9 µM (inactive)
